The reported measurements were obtained from PubChem BioAssay (NCATS).

# assay comment: Primary fluorescence-based thiol-reactive (MSTI) qHTS assay for identification of artifact compounds. (AID 1845221);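 also: thiol-reactive compounds lower the probe fluorescence signal; nearly all actives have a fitted effect of over 65% in size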
# condition context: MSTI thiol-reactivity probe, 1 h; series mostly up to 53.8 µM
Records with an inconclusive call do not appear. The source made the active and inactive calls. Calls follow the shape of the dose curve; as a rule, active = well fitted inhibition curve with a large enough effect; inconclusive = small, poorly fitted or top-dose-only effect; inactive = no such curve, though single readings can be large or run the other way.
Measured activity change, negative = thiol reactive accompanies every entry in the list below.

Previously resolved entries follow.
molecule="CC1OC(OCC2OC(OC3CCC4(C)C(CCC5(C)C4CC=C4C6CC(C)(C)CCC6(C(=O)OC6OC(CO)C(O)C(O)C6O)CCC45C)C3(C)CO)C(O)C(O)C2O)C(O)C(O)C1O (configuration not stated)" result="188% [at 11.5 µM] (inactive)"
molecule="C=C(C)C1CCC2(C(=O)O[C@@H]3O[C@H](CO[C@@H]4O[C@H](CO)[C@@H](O)[C@H](O)[C@H]4O)[C@@H](O)[C@H](O[C@@H]4O[C@@H](C)[C@H](O)[C@@H](O)[C@H]4O)[C@H]3O)CCC3(C(=O)O)C(CCC4C5(C)CCC(O)C(C)(C)C5CCC43C)C12 (some centres not stated)" result="301% [at 11.5 µM] (inactive)"
molecule="C[C@@H]1O[C@@H](O[C@H]2[C@H](O)[C@@H](O)[C@H](OC[C@H]3O[C@@H](OC(=O)[C@]45CCC(C)(C)C[C@H]4C4=CCC6[C@@]7(C)CC[C@H](O[C@@H]8OC[C@H](O)[C@H](O[C@@H]9O[C@H](CO)[C@@H](O)[C@H](O)[C@H]9O)[C@H]8O)[C@@](C)(CO)C7CC[C@@]6(C)[C@]4(C)CC5)[C@H](O)[C@@H](O)[C@@H]3O)O[C@@H]2CO)[C@H](O)[C@H](O)[C@H]1O (some centres not stated)" result="205% [at 11.5 µM] (inactive)"

Enquiry: I am curious: what activity change, negative = thiol reactive value has been reported for C[C@@H]1O[C@@H](O[C@H]2[C@H](OC(=O)[C@]34CCC(C)(C)C[C@H]3C3=CCC5[C@@]6(C)C[C@H](O)[C@H](O[C@@H]7O[C@H](CO)[C@@H](O)[C@H](O)[C@H]7O)[C@@](C)(CO)C6[C@H](O)C[C@@]5(C)[C@]3(C)CC4)OC[C@H](O)[C@@H]2O)[C@H](O)[C@H](O)[C@H]1O[C@@H]1OC[C@@H](O)[C@H](O[C@@H]2OC[C@](O)(CO)[C@H]2O)[C@H]1O (some centres not stated) ?
Return: 350% [at 11.5 µM] (inactive)

Enquiry: // next record CC1(C)CC[C@]2(C(=O)O[C@@H]3O[C@H](CO)[C@@H](O)[C@H](O)[C@H]3O)CC[C@]3(C)C(=CCC4[C@@]5(C)CC[C@H](O[C@@H]6O[C@H](C(=O)O)[C@@H](O)[C@H](O)[C@H]6O)[C@@](C)(CO)C5CC[C@]43C)C2C1 (some centres not stated)
Return: 129% [at 11.5 µM] (inactive)

Enquiry: // next record CC(C)=CCC[C@](C)(O[C@@H]1O[C@H](CO)[C@@H](O)[C@H](O)[C@H]1O)[C@H]1CC[C@]2(C)[C@@H]1[C@H](O)CC1[C@@]3(C)CC[C@H](O)C(C)(C)C3[C@@H](O[C@@H]3O[C@H](CO)[C@@H](O)[C@H](O)[C@H]3O[C@@H]3OC[C@@H](O)[C@H](O)[C@H]3O)C[C@]12C (some centres not stated)
Return: 136% [at 11.5 µM] (inactive)

Enquiry: // next record CC(=O)O[C@@H]1[C@H](O[C@@H]2O[C@@H](CO)[C@H](O)[C@H]2O)[C@@H](O[C@@H]2O[C@@H](C)[C@H](O[C@@H]3OC[C@@H](O)[C@H](O)[C@H]3O)[C@@H](O)[C@H]2O)[C@H](OC(=O)[C@]23CCC(C)(C)C[C@H]2C2=CCC4[C@@]5(C)CC[C@H](O[C@@H]6O[C@H](C(=O)O)[C@@H](O)[C@H](O)[C@H]6O[C@@H]6O[C@H](CO)[C@H](O)[C@H](O)[C@H]6O)[C@@](C)(C=O)C5CC[C@@]4(C)[C@]2(C)CC3)O[C@@H]1C (some centres not stated)
Return: 321% [at 11.5 µM] (inactive)
